- System: K4 kissing-loop RNA reporter;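 also: bound reporter read as fluorescence of individual clusters on recovered sequencing chips by microscopy, with normalized cluster intensities fitted with a binding model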
- run-description: apparent KD of K4 kissing-loop reporter; higher = weaker reporter binding
- run-parameters: Eterna round: R107; input ligand: arginine 13.2 mM
parameter: apparent KD of K4 kissing-loop reporter (nM)
Use nM as the unit, but write only the number.

As a guide, the following entries are already answered.
1) UGUACCGAGUCAGGAUAUGGCGUCGAAAGACGAAUGCUAGUGAUGUUAGGGAUCUGCGAAAGCAGUCCAGAAGGGACUUGGUACU [FmnBS 26 G36]; 471
2) AGAGUUUUAUGAGGAUAUGAGAUAGUUAAUGAGUGAGUUAUAGUGUAGUUUGUUUAGUGAUGUUAUUUAGAAGGCGUGAGUGAUG [ssxsmullin]; 95.9

Using known records, supply apparent KD of K4 kissing-loop reporter for AGGCACGAGCAAGGAUAUCGAGUAGAGUGAUGUUCUGCCUGGGUUGGCUCGUAAGAGCCUUCUCAGCGAGAAGGUGCUCGUGCCU [#2 Same State - FMN A Attempt #20 (HarryS)]
511

Origin of measurements: the supplement of paper PMC9170038
